Data origin, for the record: paper PMC2941766

Reported glucuronidation rate values are given for each entry in this list.
Molecular target: UGT1A7 (Homo sapiens, UniProt Q9HAW7)
Sequence (Q9HAW7 26-530): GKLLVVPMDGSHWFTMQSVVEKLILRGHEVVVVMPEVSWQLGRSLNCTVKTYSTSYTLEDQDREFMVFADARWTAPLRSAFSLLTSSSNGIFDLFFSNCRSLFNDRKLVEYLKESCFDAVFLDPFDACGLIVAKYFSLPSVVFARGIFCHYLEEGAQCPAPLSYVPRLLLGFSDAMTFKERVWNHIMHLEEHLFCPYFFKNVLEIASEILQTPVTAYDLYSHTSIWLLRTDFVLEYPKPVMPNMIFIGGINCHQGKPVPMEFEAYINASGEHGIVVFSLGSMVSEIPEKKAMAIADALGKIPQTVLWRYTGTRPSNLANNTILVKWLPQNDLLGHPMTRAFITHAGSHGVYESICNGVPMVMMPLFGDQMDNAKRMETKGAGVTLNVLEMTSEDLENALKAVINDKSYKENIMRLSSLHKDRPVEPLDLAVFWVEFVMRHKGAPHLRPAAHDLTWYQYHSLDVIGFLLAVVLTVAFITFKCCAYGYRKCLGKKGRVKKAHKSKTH
Experiment: Glucuronidation by expressed human UGT1A7
Assay type: in vitro ADME
Details: UGT1A7, 2.5μM substrate, 37°C

Consider the worked cases shown below.
O=c1cc(-c2ccccc2O)oc2ccccc12 [2′-HF, 2′-hydroxyflavone]    1.13±0.11 nmol per min per mg of protein
O=c1c(O)c(-c2ccccc2)oc2ccccc12 [3-HF, 3-hydroxyflavone]    8.27±0.15 nmol per min per mg of protein
O=c1cc(-c2ccccc2)oc2ccc(O)cc12 [6-HF, 6-hydroxyflavone]    0 nmol per min per mg of protein
O=c1cc(-c2cccc(O)c2)oc2ccccc12 [3′-HF, 3′-hydroxyflavone]    1.44±0.20 nmol per min per mg of protein
O=c1cc(-c2ccccc2)oc2cc(O)ccc12 [7-HF, 7-hydroxyflavone]    0 nmol per min per mg of protein

Now take the following compound into account.
Request: Requested field: glucuronidation rate. Item: O=c1cc(-c2ccc(O)cc2)oc2ccccc12 [4′-HF, 4′-hydroxyflavone]
Response: 0 nmol per min per mg of protein

* * *

Reported glucuronidation rate values are given for each entry in this list.
target: UniProt Q9HAW8; assay: Glucuronidation by expressed human UGT1A10; format: in vitro ADME; conditions: UGT1A10, 10 μM substrate, 37°C
Sequence (Q9HAW8 26-530): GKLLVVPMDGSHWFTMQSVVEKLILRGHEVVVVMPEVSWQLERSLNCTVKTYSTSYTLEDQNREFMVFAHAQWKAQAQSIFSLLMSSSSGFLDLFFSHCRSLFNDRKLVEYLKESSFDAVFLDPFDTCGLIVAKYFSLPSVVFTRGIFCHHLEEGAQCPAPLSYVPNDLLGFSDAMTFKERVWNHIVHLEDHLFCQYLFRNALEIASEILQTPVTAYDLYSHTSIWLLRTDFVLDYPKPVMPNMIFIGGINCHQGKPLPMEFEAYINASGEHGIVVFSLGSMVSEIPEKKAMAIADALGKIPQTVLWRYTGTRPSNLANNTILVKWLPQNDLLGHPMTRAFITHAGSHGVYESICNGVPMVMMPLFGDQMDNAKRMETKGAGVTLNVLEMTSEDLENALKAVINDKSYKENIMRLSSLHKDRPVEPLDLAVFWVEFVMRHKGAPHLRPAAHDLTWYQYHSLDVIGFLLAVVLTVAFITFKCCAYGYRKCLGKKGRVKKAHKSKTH

Consider the worked cases shown below.
O=c1cc(-c2cccc(O)c2)oc2ccccc12 [3′-HF, 3′-hydroxyflavone]    0.86±0.08 nmol per min per mg of protein
O=c1cc(-c2ccc(O)cc2)oc2ccccc12 [4′-HF, 4′-hydroxyflavone]    0.30±0.05 nmol per min per mg of protein
O=c1c(O)c(-c2ccccc2)oc2ccccc12 [3-HF, 3-hydroxyflavone]    1.37±0.19 nmol per min per mg of protein
O=c1cc(-c2ccccc2O)oc2ccccc12 [2′-HF, 2′-hydroxyflavone]    0.09±0.01 nmol per min per mg of protein
O=c1cc(-c2ccccc2)oc2ccc(O)cc12 [6-HF, 6-hydroxyflavone]    0.62±0.07 nmol per min per mg of protein

Now take the following molecule into account.
Request: Requested field: glucuronidation rate. Item: O=c1cc(-c2ccccc2)oc2cc(O)ccc12 [7-HF, 7-hydroxyflavone]
Response: 0.17±0.03 nmol per min per mg of protein

* * *

test: Glucuronidation by pooled human liver microsomes; type: in vitro ADME; settings: human liver microsomes, 2.5μM substrate
QUANTITY: glucuronidation rate

Consider the worked cases shown below.
O=c1c(O)c(-c2ccccc2)oc2ccccc12 [3-HF, 3-hydroxyflavone]    5.04±0.48 nmol per min per mg of protein
O=c1cc(-c2ccccc2O)oc2ccccc12 [2′-HF, 2′-hydroxyflavone]    0.97±0.03 nmol per min per mg of protein
O=c1cc(-c2ccc(O)cc2)oc2ccccc12 [4′-HF, 4′-hydroxyflavone]    0.80±0.05 nmol per min per mg of protein
O=c1cc(-c2ccccc2)oc2cc(O)ccc12 [7-HF, 7-hydroxyflavone]    1.39±0.01 nmol per min per mg of protein
O=c1cc(-c2cccc(O)c2)oc2ccccc12 [3′-HF, 3′-hydroxyflavone]    3.14±0.01 nmol per min per mg of protein

Now take the following compound into account.
Request: Requested field: glucuronidation rate. Item: O=c1cc(-c2ccccc2)oc2ccc(O)cc12 [6-HF, 6-hydroxyflavone]
Response: 0.91±0.04 nmol per min per mg of protein

* * *

Target: UGT1A8 (Homo sapiens, UniProt Q9HAW9)
Sequence (Q9HAW9 26-530): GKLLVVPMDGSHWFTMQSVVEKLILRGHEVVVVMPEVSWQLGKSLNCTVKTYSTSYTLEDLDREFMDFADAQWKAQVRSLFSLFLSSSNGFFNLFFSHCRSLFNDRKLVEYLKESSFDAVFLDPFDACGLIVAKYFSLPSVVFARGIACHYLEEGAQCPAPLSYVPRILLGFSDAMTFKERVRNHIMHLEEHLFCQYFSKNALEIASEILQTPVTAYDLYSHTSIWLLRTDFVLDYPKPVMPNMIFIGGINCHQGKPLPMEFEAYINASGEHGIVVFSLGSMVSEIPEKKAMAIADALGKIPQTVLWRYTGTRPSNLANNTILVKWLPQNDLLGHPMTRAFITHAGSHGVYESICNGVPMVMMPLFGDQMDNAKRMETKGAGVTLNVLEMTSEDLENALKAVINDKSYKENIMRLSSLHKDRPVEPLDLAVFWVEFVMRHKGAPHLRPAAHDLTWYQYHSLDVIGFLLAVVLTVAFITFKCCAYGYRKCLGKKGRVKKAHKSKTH
Test: Glucuronidation by expressed human UGT1A8
Type: in vitro ADME
Conditions: UGT1A8, 2.5μM substrate, 37°C
QUANTITY: glucuronidation rate

Request: Missing value: glucuronidation rate, UGT1A8 (Homo sapiens, UniProt Q9HAW9), entry O=c1cc(-c2ccccc2)oc2cc(O)ccc12 [7-HF, 7-hydroxyflavone] . Fill in?
Response: 0.23±0.03 nmol per min per mg of protein

Request: Missing value: glucuronidation rate, UGT1A8 (Homo sapiens, UniProt Q9HAW9), entry O=c1cc(-c2ccc(O)cc2)oc2ccccc12 [4′-HF, 4′-hydroxyflavone] . Fill in?
Response: 0.00±0.00 nmol per min per mg of protein

Request: Missing value: glucuronidation rate, UGT1A8 (Homo sapiens, UniProt Q9HAW9), entry O=c1cc(-c2ccccc2O)oc2ccccc12 [2′-HF, 2′-hydroxyflavone] . Fill in?
Response: 1.18±0.26 nmol per min per mg of protein

Request: Missing value: glucuronidation rate, UGT1A8 (Homo sapiens, UniProt Q9HAW9), entry O=c1cc(-c2ccccc2)oc2ccc(O)cc12 [6-HF, 6-hydroxyflavone] . Fill in?
Response: 0.87±0.12 nmol per min per mg of protein

* * *

Target: UniProt P22309
Sequence (P22309 26-533): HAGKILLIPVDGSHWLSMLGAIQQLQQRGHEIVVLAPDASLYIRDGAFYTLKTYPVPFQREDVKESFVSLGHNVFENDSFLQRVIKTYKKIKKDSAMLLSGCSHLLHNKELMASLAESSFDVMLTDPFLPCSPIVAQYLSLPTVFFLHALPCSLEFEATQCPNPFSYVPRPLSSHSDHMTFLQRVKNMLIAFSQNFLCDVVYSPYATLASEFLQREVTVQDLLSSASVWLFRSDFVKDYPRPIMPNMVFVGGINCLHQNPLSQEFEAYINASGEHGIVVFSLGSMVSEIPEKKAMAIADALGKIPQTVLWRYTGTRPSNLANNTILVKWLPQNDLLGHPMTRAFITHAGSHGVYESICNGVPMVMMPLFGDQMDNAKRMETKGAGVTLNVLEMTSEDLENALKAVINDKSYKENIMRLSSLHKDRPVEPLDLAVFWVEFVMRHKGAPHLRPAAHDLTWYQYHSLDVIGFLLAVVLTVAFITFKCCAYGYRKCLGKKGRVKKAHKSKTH
Assay: Glucuronidation by expressed human UGT1A1
Format: in vitro ADME
Conditions: UGT1A1, 2.5μM substrate, 37°C
QUANTITY: glucuronidation rate

O=c1cc(-c2ccccc2O)oc2ccccc12 [2′-HF, 2′-hydroxyflavone]    1.28±0.12 nmol per min per mg of protein

Request: Requested field: glucuronidation rate. Item: O=c1cc(-c2ccccc2)oc2ccc(O)cc12 [6-HF, 6-hydroxyflavone]
Response: 1.50±0.18 nmol per min per mg of protein

* * *

molecular target: UniProtKB O60656; experiment: Glucuronidation by expressed human UGT1A9; format: in vitro ADME; settings: UGT1A9, 2.5 μM substrate, 37°C
Sequence (O60656 26-530): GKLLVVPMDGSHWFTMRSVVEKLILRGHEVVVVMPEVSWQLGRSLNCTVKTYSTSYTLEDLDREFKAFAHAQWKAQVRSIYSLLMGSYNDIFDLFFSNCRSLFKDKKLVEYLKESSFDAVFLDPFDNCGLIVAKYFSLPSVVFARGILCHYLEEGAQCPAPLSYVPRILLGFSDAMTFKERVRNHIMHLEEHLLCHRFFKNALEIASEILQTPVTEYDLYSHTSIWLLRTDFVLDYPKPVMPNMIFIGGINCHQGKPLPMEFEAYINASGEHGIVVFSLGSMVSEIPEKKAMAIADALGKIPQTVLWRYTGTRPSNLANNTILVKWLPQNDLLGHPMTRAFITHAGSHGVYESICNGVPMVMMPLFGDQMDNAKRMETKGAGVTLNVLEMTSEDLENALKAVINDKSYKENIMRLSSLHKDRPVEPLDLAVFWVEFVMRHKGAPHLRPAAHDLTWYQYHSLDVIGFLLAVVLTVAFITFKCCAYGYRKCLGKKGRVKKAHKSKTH
QUANTITY: glucuronidation rate

O=c1cc(-c2ccccc2)oc2cc(O)ccc12 [7-HF, 7-hydroxyflavone]    1.30±0.09 nmol per min per mg of protein

Request: Requested field: glucuronidation rate. Item: O=c1cc(-c2ccccc2)oc2ccc(O)cc12 [6-HF, 6-hydroxyflavone]
Response: 0.10±0.00 nmol per min per mg of protein

Request: Requested field: glucuronidation rate. Item: O=c1c(O)c(-c2ccccc2)oc2ccccc12 [3-HF, 3-hydroxyflavone]
Response: 3.03±0.04 nmol per min per mg of protein

Request: Requested field: glucuronidation rate. Item: O=c1cc(-c2ccccc2O)oc2ccccc12 [2′-HF, 2′-hydroxyflavone]
Response: 0.43±0.06 nmol per min per mg of protein

Request: Requested field: glucuronidation rate. Item: O=c1cc(-c2cccc(O)c2)oc2ccccc12 [3′-HF, 3′-hydroxyflavone]
Response: 0.48±0.13 nmol per min per mg of protein
